# test_system: Polyunsaturated fatty acid 5-lipoxygenase (Homo sapiens) (UniProt P09917)
# Sequence (P09917 whole entry): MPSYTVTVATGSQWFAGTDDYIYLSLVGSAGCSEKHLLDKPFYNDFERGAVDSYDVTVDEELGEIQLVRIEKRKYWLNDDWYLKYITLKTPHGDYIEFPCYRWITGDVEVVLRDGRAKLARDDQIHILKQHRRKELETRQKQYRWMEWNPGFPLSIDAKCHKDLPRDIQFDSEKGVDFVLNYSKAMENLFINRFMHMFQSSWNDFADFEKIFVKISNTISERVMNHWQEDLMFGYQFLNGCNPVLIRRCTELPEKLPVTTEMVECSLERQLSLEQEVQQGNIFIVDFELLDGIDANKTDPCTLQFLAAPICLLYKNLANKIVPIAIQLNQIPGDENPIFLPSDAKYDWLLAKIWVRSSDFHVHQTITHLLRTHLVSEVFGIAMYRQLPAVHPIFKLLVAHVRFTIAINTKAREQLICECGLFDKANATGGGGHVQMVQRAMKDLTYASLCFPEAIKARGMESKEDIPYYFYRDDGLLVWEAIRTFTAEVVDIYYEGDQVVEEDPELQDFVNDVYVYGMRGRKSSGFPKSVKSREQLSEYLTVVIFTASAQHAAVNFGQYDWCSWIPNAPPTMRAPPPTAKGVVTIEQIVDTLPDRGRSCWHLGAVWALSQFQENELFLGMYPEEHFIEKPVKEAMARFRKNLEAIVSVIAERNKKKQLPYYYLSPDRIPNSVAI
# assay_comment: Ex vivo inhibition of 5-lipoxygenase was determined by the measurement of A-23187-stimulated LTB4 production in dog blood at 0.25h, following intravenous administration at the dose of 1.0 mg/kg
# Assay type: functional, organism-based
# Parameters: dose 1 mg/kg
# particulars: Canis lupus familiaris, target entry is the homologue from another species

| molecule | inhibition [%] |
| --- | --- |
| NC(=O)N(O)CC1COc2ccc(Oc3ccc(F)cc3)cc2O1 (stereo unspecified) | 98 |
| CC(c1cc2ccccc2s1)N(O)C(N)=O (stereo unspecified) | 94 |
| NC(=O)N(O)C[C@@H]1COc2ccc(Oc3ccc(F)cc3)cc2O1 | 100 |
| CCCCNC(=O)N(O)CC1COc2ccccc2O1 (stereo unspecified) | 100 |
| NC(=O)N(O)CC1COc2ccc(Oc3ccccc3)cc2O1 (stereo unspecified) | 100 |
| CNC(=O)N(O)CC1COc2ccc(Oc3ccccc3)cc2O1 (stereo unspecified) | 100 |

----------
# test_system: Polyunsaturated fatty acid 5-lipoxygenase (Homo sapiens) (UniProt P09917)
# assay_comment: Ex vivo inhibition of 5-lipoxygenase was determined by the measurement of A-23187-stimulated LTB4 production in dog blood at 24h, following intravenous administration at the dose of 1.0 mg/kg
# Format: functional, organism-based
# Set-up: dose 1 mg/kg
# particulars: Canis lupus familiaris, target entry is the homologue from another species
As shown below, each of these compounds has a reported inhibition value.
readout: inhibition (%)

| compound | readout | measurement_unit | meas_value |
| --- | --- | --- | --- |
| NC(=O)N(O)CC1COc2ccc(Oc3ccc(F)cc3)cc2O1 (centres undefined) | inhibition | % | 17 |
| CNC(=O)N(O)CC1COc2ccc(Oc3ccccc3)cc2O1 (centres undefined) | inhibition | % | 0 |
| CC(c1cc2ccccc2s1)N(O)C(N)=O (centres undefined) | inhibition | % | 27 |
| NC(=O)N(O)CC1COc2ccc(Oc3ccccc3)cc2O1 (centres undefined) | inhibition | % | 4 |

----------
# test_system: Polyunsaturated fatty acid 5-lipoxygenase (Homo sapiens) (UniProt P09917)
# assay_comment: Ex vivo inhibition of 5-lipoxygenase was determined by the measurement of A-23187-stimulated LTB4 production in dog blood at 0.08h, following intravenous administration at the dose of 1.0 mg/kg
# Format: functional, organism-based
# Parameters: dose 1 mg/kg
# particulars: Canis lupus familiaris, target entry is the homologue from another species
readout: inhibition (%)

| molecule | measurement_unit | meas_value |
| --- | --- | --- |
| NC(=O)N(O)CC1COc2ccc(Oc3ccccc3)cc2O1 (stereo unspecified) | % | 100 |
| NC(=O)N(O)C[C@@H]1COc2ccc(Oc3ccc(F)cc3)cc2O1 | % | 100 |
| CC(c1cc2ccccc2s1)N(O)C(N)=O (stereo unspecified) | % | 96 |
| CCCCNC(=O)N(O)CC1COc2ccccc2O1 (stereo unspecified) | % | 100 |
| CNC(=O)N(O)CC1COc2ccc(Oc3ccccc3)cc2O1 (stereo unspecified) | % | 100 |
| NC(=O)N(O)CC1COc2ccc(Oc3ccc(F)cc3)cc2O1 (stereo unspecified) | % | 94 |

----------
As shown below, each of these compounds has a reported Duration of action value.
# assay_comment: Duration of action was defined as the period of time from maximum inhibition of A-23187-stimulated LTB4 formation to the time where 50% of maximum inhibition is reached

| compound | measurement_unit | Duration of action |
| --- | --- | --- |
| NC(=O)N(O)CC1COc2cc(Oc3ccccc3)ccc2O1 (centres undefined) | h | 1.7 |
| CNC(=O)N(O)CC1COc2ccc(Oc3ccccc3)cc2O1 (centres undefined) | h | 1.5 |
| CCCCNC(=O)N(O)CC1COc2ccccc2O1 (centres undefined) | h | 0.7 |
| NC(=O)N(O)CC1COc2ccc(Oc3ccccc3)cc2O1 (centres undefined) | h | 4 |
